- Tested on: NCI/ADR-RES ovarian
- procedure_text: NCI-60 one-dose screen, 48 h (100 = growth as untreated, 0 = no growth, -100 = all killed)
- run_conditions: 10 µM unless noted
- Protocol: Growth inhibition of the NCI/ADR-RES human […] tumor cell line is measured as a screen for anti-cancer activity. Cells are grown in 96 well plates and exposed to the test compound for 48 hours. Compounds are tested at a single concentration, which is 10^-5 M for most compounds. The reported endpoint is percent growth (GI% or GIPRCNT), where numbers from 0 - 100% represent growth inhibition, and numbers from -100% - 0 represent cell death. For example, a value of 40 represents 60% growth inhibition. […]
About 83,000 compounds went through this panel and 20% of them were active in at least one assay; those are over-represented in the sample as a whole. The source made the active and inactive calls. Rule for the calls: active = growth percent below 10; inactive = the rest.
growth by entry:

Worked examples, 3 molecules total:
* C=C1C(=O)O[C@H]2[C@H]1CC/C(COC(=O)CCSCCC(=O)OC/C1=C/CC[C@@]3(C)O[C@H]3[C@H]3OC(=O)C(=C)[C@@H]3CC1)=C\CC[C@@]1(C)O[C@@H]21 | 53.4% (inactive)
* O=C(NCc1ccccc1)Nc1ccccc1CNc1nc(Nc2ccc(OCCN3CCCC3)cc2)ncc1Cl | 92.2% (inactive)
* CN(Cc1ccc(C(F)(F)F)cc1)CC(O)C(=O)Nc1ccc(Cl)cc1 (stereo unspecified) | 39.3% (inactive)

INPUT: Returns the measured growth for the input molecule. Input: COC(C(=O)[C@@H](O)[C@@H](C)O)[C@@H]1Cc2cc3cc(O[C@H]4C[C@@H](O[C@H]5C[C@@H](O)[C@H](O)C(C)O5)[C@H](O)C(C)O4)cc(O)c3c(O)c2C(=O)[C@H]1O[C@H]1C[C@@H](O[C@H]2C[C@@H](O[C@H]3C[C@@H](OC)[C@H](O)C(C)O3)[C@@H](O)C(C)O2)[C@H](O)C(C)O1 (stereo partly specified)
OUTPUT: 97.5% (inactive)

INPUT: Again, but for "N#C/C(=C/c1ccc([N+](=O)[O-])cc1)n1nnc2cc(F)c(F)cc21"
OUTPUT: 76.2% (inactive)

INPUT: Another molecule to check: "O=CC1(C2(C=O)c3ccccc3-c3ccccc32)c2ccccc2-c2ccccc21"
OUTPUT: -14% (active)

----------
- System: SNB-75 CNS
- procedure_text: NCI-60 one-dose screen, 48 h
- run_conditions: 10 µM unless noted
The panel holds about 83,000 compounds, 20% with a hit somewhere; the sample as a whole holds those more often. Active and inactive are the calls of the source. Rule for the calls: active = growth percent below 10; inactive = the rest.
One label from this list, please: yes (active), no (inactive)

INPUT: What classification did "O=C(c1ccc(Cl)cc1)N1CCN(c2ccnc3cc(Cl)ccc23)CC1" end up with in this test?
OUTPUT: no

INPUT: Do the same for "CCOC(=O)c1cnc2ccccc2c1Cl" please
OUTPUT: no

INPUT: Try this compound next: "COc1ccc(-c2nc3c(c(-c4ccccc4)nn3-c3ccccc3)c(-c3ccc(N4CCOCC4)cc3)c2C#N)cc1"
OUTPUT: no

INPUT: // next record "CN(C)CC(=O)Nc1ccc2ncnc(Nc3ccc(Oc4cccc(C(F)(F)F)c4)c(Cl)c3)c2c1"
OUTPUT: no

INPUT: Moving on to "CC1=C(Nc2ccc(N3CCN(C)CC3)cc2)C(=O)c2cncnc2C1=O"
OUTPUT: no

INPUT: Another: "COc1cc(/C=C\c2cc(/C=C\c3ccc(O)c(OC)c3)n(C(=O)COc3ccc(Cl)cc3Cl)n2)ccc1O"
OUTPUT: yes

INPUT: Okay, and "Cc1cc2c([nH]1)CSc1cc(S(=O)(=O)c3ccccc3)c(=O)[nH]c1-2" ?
OUTPUT: no

INPUT: Thanks! And "COc1cc(CNC(=O)/C=C/C=C/c2ccc3c(c2)OCO3)ccc1OCc1cn(-c2ccc(C)c(C)c2)nn1" ?
OUTPUT: no
